- test: Secondary Assay for General miRNAs Modulators and/or Inhibitors/Activators of miR-21: miR-30 Firefly Luciferase Assay
- stated conditions: HeLa miR-30 FLuc reporter, luminescence, 48 h; series mostly up to 38.3 µM
Inconclusive results are not listed. Activity calls are given as the source filed them. The call rests on the fitted dose curve; in most records, active means well fitted inhibition curve with a large enough effect; inconclusive means small, poorly fitted or top-dose-only effect, or effect the other way; inactive means flat fitted curve, though single readings scatter.
readout label: Potency

A selection of reference data follows.
smiles code: Cc1ccc(-c2nc(NCc3ccco3)n(S(C)(=O)=O)n2)cc1
Potency: 11.3 µM (active)
//
smiles code: Cc1cccc(-c2nsc(SCC(=O)Nc3ccc4c(c3)OCO4)n2)c1
Potency: 22.5 µM (active)
//
smiles code: COc1ccc(OCC(=O)Nc2ccc(-c3nc4cc(C)c(C)cc4o3)cc2)cc1
Potency: 0.798 µM (active)
//
smiles code: CCc1ccc2oc(C(=O)Nc3nonc3CC)c(C)c2c1
Potency: 3.56 µM (active)
//
smiles code: COc1cccc(NC(=O)CSc2nnc(-c3cccs3)o2)c1
Potency: 5.65 µM (active)

Lookup: What Potency value was documented for this molecule, `COc1ccc(OCC(=O)Nc2cc(-c3nc4ccccc4s3)ccc2C)cc1` ?
Found: 4.49 µM (active)

====

Please provide measured Potency for the entries that follow.
- test: Secondary Assay for General miRNAs Modulators and/or Inhibitors/Activators of miR-21: miR-30 Firefly Luciferase Assay
- stated conditions: HeLa miR-30 FLuc reporter, luminescence, 48 h; series mostly up to 38.3 µM
Records with an inconclusive call do not appear. Calls of active or inactive are those of the source. The call rests on the fitted dose curve; in most records, active means well fitted inhibition curve with a large enough effect; inconclusive means small, poorly fitted or top-dose-only effect, or effect the other way; inactive means flat fitted curve, though single readings scatter.

A selection of reference data follows.
smiles code: CN(C)c1ccc(CNc2nc(-c3ccco3)nn2S(C)(=O)=O)cc1
reported value: 2.83 µM (active)
//
smiles code: COc1ccc(NCc2cccn2-c2nnc(N3CCC(C)CC3)s2)c(OC)c1
reported value: 1.79 µM (active)
//
smiles code: Cc1ccc(CNc2nc3nc(C)c(Cl)c(C)n3n2)cc1
reported value: 6.34 µM (active)
//
smiles code: Cc1ccc(CNc2nc(-c3ccco3)nn2S(C)(=O)=O)cc1
reported value: 2.83 µM (active)
//
smiles code: N#Cc1cc2cc3c(cc2nc1SCC(=O)N1CCOCC1)OCO3
reported value: 0.798 µM (active)

Please find the next compound below.
Lookup: What Potency value was documented for this compound, `NC(=O)c1ccccc1NC(=O)c1ccc(-c2ccc(Br)cc2)o1` ?
Found: 1.13 µM (active)

====

- test: Secondary Assay for General miRNAs Modulators and/or Inhibitors/Activators of miR-21: miR-30 Firefly Luciferase Assay
- stated conditions: HeLa miR-30 FLuc reporter, luminescence, 48 h; series mostly up to 38.3 µM
Results filed as inconclusive are left out. Calls of active or inactive are those of the source. The call rests on the fitted dose curve; in most records, active means well fitted inhibition curve with a large enough effect; inconclusive means small, poorly fitted or top-dose-only effect, or effect the other way; inactive means flat fitted curve, though single readings scatter.
Please reply with one of these outcomes: t = active, f = inactive

smiles code: Cn1c(=O)[nH]c2cc(-c3noc(-c4ccc(F)cc4)n3)ccc21
qualitative label: t
//
smiles code: COc1ccc(NC(=O)CSc2nnc(-c3cccs3)o2)cc1
qualitative label: t

Lookup: Hi, sorry to bother you, what did the test record for `Cc1ccccc1OCCn1cnc2c(N)ncnc21` ?
Found: f

Lookup: Hi, sorry to bother you, what did the test record for `CCc1nonc1NC(=O)c1oc2ccc(C)cc2c1C` ?
Found: t

Lookup: Hi, sorry to bother you, what did the test record for `COc1ccccc1C(=O)n1nc(-c2ccco2)nc1NCc1ccc(Cl)cc1` ?
Found: t

Lookup: Hi, sorry to bother you, what did the test record for `CC(C)COc1ccc(C(=O)Nc2cc(-c3ccccc3)no2)cc1` ?
Found: t

Lookup: Hi, sorry to bother you, what did the test record for `Cc1cccc(OCc2nnc(SCC(=O)Nc3ccc(N4CCOCC4)cc3)o2)c1` ?
Found: f

Lookup: Hi, sorry to bother you, what did the test record for `COc1cc(-c2nc3cnccn3c2Nc2ccc(C(C)C)cc2)ccc1O` ?
Found: t

Lookup: Hi, sorry to bother you, what did the test record for `COCC(=O)Nc1c(C(=O)Nc2ccc3c(c2)OCCO3)oc2ccccc12` ?
Found: t

Lookup: Hi, sorry to bother you, what did the test record for `Cc1nnc(SCc2nc(N)nc(Nc3ccccc3)n2)s1` ?
Found: t

Lookup: Hi, sorry to bother you, what did the test record for `COc1ccc(-c2nc(SCc3ccccc3)n(S(C)(=O)=O)n2)cc1` ?
Found: t

====

- test: Secondary Assay for General miRNAs Modulators and/or Inhibitors/Activators of miR-21: miR-30 Firefly Luciferase Assay
- stated conditions: HeLa miR-30 FLuc reporter, luminescence, 48 h; series mostly up to 38.3 µM
Inconclusive results are not listed. Active and inactive are the calls of the source. Calls come from the whole dose curve; as a rule, active = well fitted inhibition curve with a large enough effect; inconclusive = small, poorly fitted or top-dose-only effect, or effect the other way; inactive = flat fitted curve, though single readings scatter.
Please reply with one of these outcomes: label 1 for active, label 0 for inactive

smiles code: Clc1ccc(-n2ncc3c(NCc4ccccn4)ncnc32)cc1
qualitative label: label 1
--
smiles code: COc1ccc(-c2csc(NC(=O)COC(=O)c3ccc(Br)o3)n2)cc1
qualitative label: label 1
--
smiles code: CCCn1c(=O)c2sccc2n2c(CCCC(=O)Nc3ccc(Oc4ccc(Cl)cc4)cc3)nnc12
qualitative label: label 0
--
smiles code: CCc1ccc(-n2nnc(-c3nc(-c4cccs4)no3)c2N)cc1
qualitative label: label 1
--
smiles code: O=C(CSc1nnc(-c2ccc(O)cc2)o1)Nc1ccccc1Br
qualitative label: label 1

Now consider the entry below.
Lookup: Hi, sorry to bother you, what did the test record for `COc1nc(Nc2cccc(C(F)(F)F)c2)nc(OC)n1` ?
Found: label 1

====

- test: Secondary Assay for General miRNAs Modulators and/or Inhibitors/Activators of miR-21: miR-30 Firefly Luciferase Assay
- stated conditions: HeLa miR-30 FLuc reporter, luminescence, 48 h; series mostly up to 38.3 µM
Results filed as inconclusive are left out. Active and inactive are the calls of the source. Calls come from the whole dose curve; as a rule, active = well fitted inhibition curve with a large enough effect; inconclusive = small, poorly fitted or top-dose-only effect, or effect the other way; inactive = flat fitted curve, though single readings scatter.
Please reply with one of these outcomes: 1 (yes) = active, 0 (no) = inactive

Worked set:
molecule: CCC(Oc1ccccc1F)C(=O)N1CCC(c2nc3ccccc3s2)CC1 (stereo unspecified)
qualitative label: 0 (no)
//
molecule: COc1ccc(CNc2nc(-c3ccco3)nn2C(=O)CC(C)C)cc1
qualitative label: 1 (yes)
//
molecule: CS(=O)(=O)n1nc(-c2ccc(Cl)cc2)nc1SCc1ccccc1
qualitative label: 1 (yes)

Lookup: Hi, sorry to bother you, what did the test record for `Nc1c(-c2nc(-c3cccs3)no2)nnn1-c1cccc(F)c1` ?
Found: 1 (yes)

Lookup: Hi, sorry to bother you, what did the test record for `CCc1nonc1NC(=O)c1oc2ccccc2c1C` ?
Found: 1 (yes)

Lookup: Hi, sorry to bother you, what did the test record for `COc1ccc(NC(=O)c2ncn(-c3ccccc3)n2)cc1Cl` ?
Found: 1 (yes)

====

- test: Secondary Assay for General miRNAs Modulators and/or Inhibitors/Activators of miR-21: miR-30 Firefly Luciferase Assay
- stated conditions: HeLa miR-30 FLuc reporter, luminescence, 48 h; series mostly up to 38.3 µM
Inconclusive results are not listed. The source made the active and inactive calls. Calls come from the whole dose curve; as a rule, active = well fitted inhibition curve with a large enough effect; inconclusive = small, poorly fitted or top-dose-only effect, or effect the other way; inactive = flat fitted curve, though single readings scatter.
Please reply with one of these outcomes: active, inactive

Worked set:
smiles code: Nc1c(C(=O)Nc2ccccc2Br)sc2nc(-c3cccs3)ccc12
qualitative label: inactive
--
smiles code: Cc1c(-c2nsc(NC(=O)c3cccs3)n2)nnn1-c1ccc(F)cc1
qualitative label: active
--
smiles code: O=C(Nc1nnc(S(=O)(=O)N2CCCC2)s1)c1ccc(F)cc1
qualitative label: inactive

Lookup: Hi, sorry to bother you, what did the test record for `Cc1ccc(-n2nnc(-c3nc(-c4cccs4)no3)c2N)cc1C` ?
Found: active
